- Assayed System: ScAbp1
- Method: SPOT peptide array binding signal intensity (averaged, normalized) (arbitrary units (background-subtracted, floor 0; scale differs between SH3 domains)); higher = stronger binding of the SH3 domain to the peptide
Value Kind: SPOT peptide array binding signal intensity
Keep it simple and answer with nothing but the number.

// field: SPOT peptide array binding signal intensity; key: PLQSKIPMLPSRRTM ; value = 34.5

// field: SPOT peptide array binding signal intensity; key: APERAVPILPPRNNV ; value = 1.5

// field: SPOT peptide array binding signal intensity; key: LLGRKRPVMERVVDI ; value = 33

// field: SPOT peptide array binding signal intensity; key: FYHRPAPKPPVTKKV ; value = 87.5
